- test-system: human LXRβ (Homo sapiens)
- Construct: biotin (biotinylated; biotinylation tag not described); made in house; host or cells: E. coli
- Sequence (P55055 1-460): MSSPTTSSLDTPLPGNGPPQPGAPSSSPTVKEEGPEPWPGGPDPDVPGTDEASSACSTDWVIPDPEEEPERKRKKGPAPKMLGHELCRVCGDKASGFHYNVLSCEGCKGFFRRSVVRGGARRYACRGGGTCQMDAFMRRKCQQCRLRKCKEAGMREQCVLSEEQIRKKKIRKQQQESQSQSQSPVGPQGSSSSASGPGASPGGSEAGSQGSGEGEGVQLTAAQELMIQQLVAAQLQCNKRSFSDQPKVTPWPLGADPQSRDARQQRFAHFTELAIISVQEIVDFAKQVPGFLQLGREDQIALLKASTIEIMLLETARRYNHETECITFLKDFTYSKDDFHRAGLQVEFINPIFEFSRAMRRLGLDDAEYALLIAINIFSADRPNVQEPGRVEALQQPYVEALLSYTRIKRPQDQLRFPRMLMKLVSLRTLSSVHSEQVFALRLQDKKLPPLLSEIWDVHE
- assay-remarks: Ligand-binding test procedure for human LXRβ (3H T0901317 competition, flash plates)
- condition-set: IC50 (μM) LXRα binding/IC50 (μM) LXRβ binding
Give measured Binding ratio a/b for each item. Keep answers brief.
Answer with a number only.

Input O=C(O)c1ccc2cc(OCc3cccc(-c4c(Cc5ccccc5)cnc5c(C(F)(F)F)cccc45)c3)ccc2c1 [Example 39] . Output Binding ratio a/b: 7

Input O=C(O)Cc1cccc(NCc2cccc(-c3c(Cc4ccccc4)cnc4c(C(F)(F)F)cccc34)c2)c1 [Example 30] . Output Binding ratio a/b: 8

Input O=C(O)Cc1ccc(NCc2cncc(-c3c(Cc4ccccc4)cnc4c(C(F)(F)F)cccc34)c2)cc1 [Example 36] . Output Binding ratio a/b: 7

----------
- test-system: human LXRβ (Homo sapiens, UniProt P55055)
- Construct: biotin (biotinylated; biotinylation tag not described); made in house; host or cells: E. coli
- assay-remarks: Ligand-binding test procedure for human LXRβ (3H T0901317 competition, flash plates)
- condition-set: IC50 (μM) LXRα binding/IC50 (μM) LXRβ binding
assay-endpoint: Binding ratio a/b
Answer with a number only.

Input Cc1cc(NCc2cscc2-c2c(Cc3ccccc3)cnc3c(C(F)(F)F)cccc23)c(C)cc1CC(=O)O [Example 64] . Output Binding ratio a/b: 4

Input O=C(O)c1cccc2c(NCc3cccc(-c4ccnc5c(C(F)(F)F)cccc45)c3)cccc12 [Example 48] . Output Binding ratio a/b: 6

Input O=C(O)c1ccc2cc(NCc3cncc(-c4c(Cc5ccccc5)cnc5c(C(F)(F)F)cccc45)c3)ccc2c1 [Example 6] . Output Binding ratio a/b: 25

Input Cc1ccc(C(=O)O)c(NCc2cccc(-c3c(Cc4ccccc4)cnc4c(C(F)(F)F)cccc34)c2)c1 [Example 33] . Output Binding ratio a/b: 8

Input Cc1cc(C(=O)O)cc(C)c1OCc1cccc(-c2c(Cc3ccccc3)cnc3c(C(F)(F)F)cccc23)c1 [Example 26] . Output Binding ratio a/b: 10

Input Cn1c(C(=O)O)cc2cccc(NCc3cccc(-c4c(Cc5ccccc5)cnc5c(C(F)(F)F)cccc45)c3)c21 [Example 105] . Output Binding ratio a/b: 1

Input O=C(N[C@@H](Cc1c[nH]cn1)C(=O)O)c1ccc(COc2cccc(-c3c(Cc4ccccc4)cnc4c(C(F)(F)F)cccc34)c2)cc1 [Example 61] . Output Binding ratio a/b: 5

Input Cc1c(CC(=O)O)ccc(NCc2cncc(-c3c(Cc4ccccc4)cnc4c(C(F)(F)F)cccc34)c2)c1C [Example 10] . Output Binding ratio a/b: 22

Input O=C(O)c1cc2ccccc2cc1OCc1cccc(-c2c(Cc3ccccc3)cnc3c(C(F)(F)F)cccc23)c1 [Example 109] . Output Binding ratio a/b: 1

Input O=C(O)c1ccc(NCc2cccc(-c3c(Cc4ccccc4)cnc4c(C(F)(F)F)cccc34)c2)c(OC(F)(F)F)c1 [Example 110] . Output Binding ratio a/b: 1

Input O=C(O)c1cc(Cl)c(OCc2cccc(-c3c(Cc4ccccc4)cnc4c(C(F)(F)F)cccc34)c2)c(Cl)c1 [Example 67] . Output Binding ratio a/b: 4

Input Cc1cnc2c(C(F)(F)F)cccc2c1-c1cccc(CNc2ccc3cc(C(=O)O)ccc3c2)c1 [Example 15] . Output Binding ratio a/b: 18

Input O=C(O)Cc1ccc2c(OCc3cccc(-c4c(Cc5ccccc5)cnc5c(C(F)(F)F)cccc45)c3)cccc2c1 [Example 69] . Output Binding ratio a/b: 4

meta.source: patent US20090069373A1
